Molecular target: Protein mono-ADP-ribosyltransferase TIPARP (Homo sapiens, UniProt Q7Z3E1)
Sequence (Q7Z3E1 whole entry): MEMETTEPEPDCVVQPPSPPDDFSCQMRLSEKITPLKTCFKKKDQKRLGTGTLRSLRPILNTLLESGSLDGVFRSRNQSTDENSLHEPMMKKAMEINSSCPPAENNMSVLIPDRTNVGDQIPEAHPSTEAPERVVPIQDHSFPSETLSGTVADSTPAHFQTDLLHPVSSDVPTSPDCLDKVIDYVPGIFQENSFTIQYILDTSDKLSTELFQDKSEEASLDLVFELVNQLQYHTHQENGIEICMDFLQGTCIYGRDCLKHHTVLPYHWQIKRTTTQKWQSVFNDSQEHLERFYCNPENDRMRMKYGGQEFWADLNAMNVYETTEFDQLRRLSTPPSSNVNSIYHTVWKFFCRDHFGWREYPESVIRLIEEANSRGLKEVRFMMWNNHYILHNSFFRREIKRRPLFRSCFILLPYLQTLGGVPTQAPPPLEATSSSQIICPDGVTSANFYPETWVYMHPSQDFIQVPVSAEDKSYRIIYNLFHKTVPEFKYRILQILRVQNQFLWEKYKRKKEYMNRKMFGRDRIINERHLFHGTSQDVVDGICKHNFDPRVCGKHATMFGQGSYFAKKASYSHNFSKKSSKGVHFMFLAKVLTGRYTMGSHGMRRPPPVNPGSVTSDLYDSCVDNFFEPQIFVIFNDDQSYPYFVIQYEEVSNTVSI
Measurement label: IC50 (nM)

# Test smiles, Measurement label, Readout units, Number
measured = [
    ("NC(=O)c1cccc2cn(CC(=O)N3CCN(c4ncc(C(F)(F)F)cn4)CC3)nc12", "IC50", "nM", 46),
]

====

Target: UniProtKB Q9H2K2
Sequence (Q9H2K2 whole entry): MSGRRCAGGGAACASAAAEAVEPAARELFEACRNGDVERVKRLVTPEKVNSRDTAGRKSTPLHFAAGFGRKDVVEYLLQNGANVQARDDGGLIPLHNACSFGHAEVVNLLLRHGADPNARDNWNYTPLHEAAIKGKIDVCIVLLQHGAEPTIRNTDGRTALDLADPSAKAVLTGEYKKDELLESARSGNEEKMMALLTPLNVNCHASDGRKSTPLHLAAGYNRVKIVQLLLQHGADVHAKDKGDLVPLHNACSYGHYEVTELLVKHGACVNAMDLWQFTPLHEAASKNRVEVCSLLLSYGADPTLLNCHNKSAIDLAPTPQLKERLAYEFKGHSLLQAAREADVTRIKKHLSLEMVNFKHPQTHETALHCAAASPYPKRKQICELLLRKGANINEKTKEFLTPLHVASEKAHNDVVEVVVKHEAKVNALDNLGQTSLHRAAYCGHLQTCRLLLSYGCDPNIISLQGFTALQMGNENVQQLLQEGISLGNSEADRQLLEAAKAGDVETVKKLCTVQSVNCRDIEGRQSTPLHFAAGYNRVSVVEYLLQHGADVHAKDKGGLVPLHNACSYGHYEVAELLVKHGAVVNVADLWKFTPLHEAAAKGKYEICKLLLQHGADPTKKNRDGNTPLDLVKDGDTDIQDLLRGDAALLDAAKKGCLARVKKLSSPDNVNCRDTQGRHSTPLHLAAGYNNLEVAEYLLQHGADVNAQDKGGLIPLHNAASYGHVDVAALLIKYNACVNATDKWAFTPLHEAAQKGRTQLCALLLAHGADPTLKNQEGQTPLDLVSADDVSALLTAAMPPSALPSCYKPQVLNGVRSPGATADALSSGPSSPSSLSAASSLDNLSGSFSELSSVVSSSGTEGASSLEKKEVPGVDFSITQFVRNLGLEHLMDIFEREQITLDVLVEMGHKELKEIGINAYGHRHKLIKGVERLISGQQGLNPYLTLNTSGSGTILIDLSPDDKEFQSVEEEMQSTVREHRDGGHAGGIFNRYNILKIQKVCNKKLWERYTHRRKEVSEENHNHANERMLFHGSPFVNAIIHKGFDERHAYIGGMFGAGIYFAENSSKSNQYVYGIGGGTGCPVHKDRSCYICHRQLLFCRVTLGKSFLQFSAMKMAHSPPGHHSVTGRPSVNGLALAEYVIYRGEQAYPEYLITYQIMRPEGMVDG
pIC50: −log10 of the molar value.

# Test smiles, pIC50
rows = [
    ("C[C@@H](C(=O)N1CCN(c2ncc(C(F)(F)F)cn2)CC1)n1cc2cccc(C(N)=O)c2n1", 6.16),
]
